biological target: human calcium receptor (Homo sapiens, UniProt P41180, R990G); construct: expressed in transfected cells; host or cells: HEK 293; assay: increases in [Ca^2+ ]i in HEK-293 cells expressing the human calcium receptor (fura-2 loaded HEK 293/pHuPCaR4.0 cells), % activity; assay type: cell-based; conditions: 330 ng/mL
Sequence (P41180 20-1078 R990G): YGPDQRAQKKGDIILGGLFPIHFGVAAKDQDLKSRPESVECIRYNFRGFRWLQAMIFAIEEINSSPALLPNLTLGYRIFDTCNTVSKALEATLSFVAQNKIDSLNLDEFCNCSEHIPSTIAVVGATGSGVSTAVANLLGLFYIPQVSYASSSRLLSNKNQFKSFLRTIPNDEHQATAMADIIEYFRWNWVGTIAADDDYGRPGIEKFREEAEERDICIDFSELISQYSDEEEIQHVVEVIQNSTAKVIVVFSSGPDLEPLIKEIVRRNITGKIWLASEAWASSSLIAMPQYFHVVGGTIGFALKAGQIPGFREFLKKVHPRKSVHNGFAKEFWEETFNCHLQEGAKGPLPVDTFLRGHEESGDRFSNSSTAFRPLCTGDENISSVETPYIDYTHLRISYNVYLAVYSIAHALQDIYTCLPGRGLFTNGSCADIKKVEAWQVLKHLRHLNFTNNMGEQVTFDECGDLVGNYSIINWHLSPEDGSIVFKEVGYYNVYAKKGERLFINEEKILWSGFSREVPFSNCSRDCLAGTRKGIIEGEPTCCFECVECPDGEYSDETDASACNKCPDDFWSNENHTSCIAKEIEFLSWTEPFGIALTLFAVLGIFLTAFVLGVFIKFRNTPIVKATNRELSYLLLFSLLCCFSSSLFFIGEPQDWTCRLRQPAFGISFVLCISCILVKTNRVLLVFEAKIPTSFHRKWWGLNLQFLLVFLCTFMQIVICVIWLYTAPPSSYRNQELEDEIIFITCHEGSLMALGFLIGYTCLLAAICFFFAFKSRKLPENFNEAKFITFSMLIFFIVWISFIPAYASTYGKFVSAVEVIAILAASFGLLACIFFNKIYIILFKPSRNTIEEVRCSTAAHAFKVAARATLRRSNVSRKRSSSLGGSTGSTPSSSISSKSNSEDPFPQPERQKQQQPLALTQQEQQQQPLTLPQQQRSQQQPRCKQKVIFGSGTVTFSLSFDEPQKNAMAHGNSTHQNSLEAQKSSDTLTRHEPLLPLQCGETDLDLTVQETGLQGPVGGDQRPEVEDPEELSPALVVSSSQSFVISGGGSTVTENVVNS
measuredParameter: % activity (%)

{"columns": ["molecule", "measuredParameter", "valueMeasured"],
 "data": [
  ["C[C@@H](NCc1ccc(C#N)cc1)c1cccc2ccccc12 [Compound 16Z]", "% activity", 88],
  ["COc1ccc(CNC(C)c2ccc(C)c(C)c2)cc1C (stereo not drawn) [Compound 24G]", "% activity", 94],
  ["COc1ccc(CNCc2cccc3ccccc23)cc1C [Compound 17Y]", "% activity", 94],
  ["COc1ccc([C@@H](C)N[C@@H](C)c2cccc(OC)c2)cc1 [Compound 16M]", "% activity", 68],
  ["CC(NCC=Cc1ccccc1[N+](=O)[O-])c1ccccc1 (stereo not drawn)", "% activity", 73],
  ["COc1cccc([C@@H](C)NCC=Cc2ccc(C)cc2C)c1 [Compound 12F]", "% activity", 110],
  ["C[C@@H](NCc1ccc(OCc2ccccc2)cc1)c1cccc2ccccc12 [Compound 12I]", "% activity", 111],
  ["COc1cccc(C(C)NCCCc2ccccc2C(F)(F)F)c1 (stereo not drawn)", "% activity", 93],
  ["C[C@@H](NCCCc1cccc(C(F)(F)F)c1)c1cccc2ccccc12 [Compound 22J]", "% activity", 99]
]}

###

molecular target: human calcium receptor (Homo sapiens, UniProt P41180, R990G); construct: expressed in transfected cells; host or cells: HEK 293; assay: increases in [Ca^2+ ]i in HEK-293 cells expressing the human calcium receptor (fura-2 loaded HEK 293/pHuPCaR4.0 cells), % activity; format: cell-based; details: 330 ng/mL
% activity by entry:

{"columns": ["compound", "% activity [%]"],
 "data": [
  ["COc1cccc([C@@H](C)NCCCc2ccc(C)cc2)c1", 75],
  ["COc1ccc(CNC(C)c2ccccc2F)cc1C (centres unmarked) [Compound 23J]", 61],
  ["C[C@@H](NCc1ccccc1)c1cccc2ccccc12 [Compound 12L]", 88],
  ["COc1cccc(C(C)NCCCC2CCCCC2)c1 (centres unmarked)", 85],
  ["COc1ccc(CNC(C)c2cccc(I)c2)cc1C (centres unmarked) [Compound 23S]", 97],
  ["COc1cccc([C@@H](C)NCCCc2ccccc2C(F)(F)F)c1 [Compound 21O]", 109],
  ["Cc1cccc(C(C)NCCC(c2ccccc2)c2ccccc2)c1 (centres unmarked)", 64],
  ["COc1cccc([C@@H](C)NCC=Cc2ccccc2)c1 [Compound 25E]", 129],
  ["COc1cccc([C@@H](C)N[C@@H](C)CCc2cccc(C(F)(F)F)c2)c1 [Compound 21X]", 101],
  ["COc1cccc(CCNC(C)c2cccc3ccccc23)c1 (centres unmarked) [Compound 15I]", 93],
  ["CCOC(=O)COc1cccc([C@@H](C)NCc2ccc3ccccc3c2)c1 [Compound 11D]", 96],
  ["CC(N[C@H](C)c1ccccc1)c1ccc2ccccc2c1 (some centres unmarked)", 77],
  ["CCOc1ccc(CN[C@H](C)c2cccc3ccccc23)cc1Cl [Compound 24Y]", 120],
  ["CC(NC(C)c1cccc2ccccc12)c1ccc(Cl)c(Cl)c1 (centres unmarked) [Compound 17K]", 97],
  ["COc1ccc(CNCc2ccccc2OC)cc1C [Compound 17V]", 66],
  ["COc1cccc([C@@H](C)NC2Cc3ccccc3C2)c1 [Compound 25P]", 81],
  ["COc1ccc(CNC(C)c2cccc(Br)c2)cc1C (centres unmarked) [Compound 23Q]", 114],
  ["COc1ccc(CNC(C)c2ccccc2)cc1C (centres unmarked) [Compound 23G]", 93],
  ["COc1cccc([C@@H](C)NCC=Cc2ccc(C(C)C)cc2)c1 [Compound 12E]", 121],
  ["C[C@@H](NCc1ccc(C(F)(F)F)cc1)c1cccc2ccccc12 [Compound 13S]", 102]
]}

###

% activity by entry:
target: human calcium receptor (Homo sapiens, UniProt P41180, R990G); construct: expressed in transfected cells; host or cells: HEK 293; assay: increases in [Ca^2+ ]i in HEK-293 cells expressing the human calcium receptor (fura-2 loaded HEK 293/pHuPCaR4.0 cells), % activity; format: cell-based; conditions: 33 ng/mL
Counter-ions that a name gives are not always drawn.

{"columns": ["compound", "unitInfo", "% activity"],
 "data": [
  ["COc1cccc([C@@H](C)NCC=Cc2ccc(C)cc2C)c1 [Compound 12F]", "%", 101],
  ["COc1cccc([C@H](C)NC[C@H](C)C=Cc2ccccc2)c1 [Compound 25I]", "%", 114],
  ["COc1cccc(C(C)NC(C)c2ccc(C(C)(C)C)cc2)c1 (mixture of isomers) [Compound 13G]", "%", 82],
  ["COc1cccc([C@@H](C)NCCCc2ccc(C)cc2)c1", "%", 40],
  ["COc1ccc(CN[C@H](C)c2cccc3ccccc23)cc1 [Compound 13U]", "%", 79],
  ["CC(NCCCc1ccccc1Cl)c1cccc(Cl)c1 (centres unmarked) [Compound 24O]", "%", 58],
  ["C[C@@H](NCc1ccc(C#N)cc1)c1cccc2ccccc12 [Compound 16Z]", "%", 51],
  ["C[C@@H](NCc1ccc(C(F)(F)F)cc1)c1cccc2ccccc12 [Compound 17F]", "%", 90],
  ["COc1cccc([C@@H](C)NCCCc2ccccc2I)c1 [Compound 17R]", "%", 65],
  ["CC(NC(C)c1cccc2ccccc12)c1ccc(Cl)c(Cl)c1 (centres unmarked) [Compound 17J]", "%", 122],
  ["COc1cccc([C@@H](C)NCCCc2ccc(OC)c(OC)c2)c1 [Compound 20J]", "%", 48],
  ["CCc1ccc(C(C)NCc2ccc(OC)c(C)c2)cc1 (centres unmarked) [Compound 24A]", "%", 52],
  ["CCOc1cccc([C@@H](C)NCCCc2ccccc2Cl)c1", "%", 78],
  ["CCOc1ccc(CN[C@H](C)c2cccc3ccccc23)cc1Cl [Compound 24Y]", "%", 127],
  ["CSc1cccc(C(C)NCCCc2ccccc2)c1 (centres unmarked) [Compound 8J, hydrochloride]", "%", 77],
  ["COc1cccc([C@@H](C)NCC=Cc2cccc(C)c2)c1 [Compound 12G]", "%", 81],
  ["C[C@@H](NCc1ccc2c(c1)OCO2)c1cccc2ccccc12 [Compound 16R]", "%", 76],
  ["COc1ccc(CNC(C)c2cccc(C#N)c2)cc1C (centres unmarked) [Compound 24E]", "%", 35],
  ["COc1ccc(CNC(C)c2cccc(C)c2)cc1C (centres unmarked) [Compound 23X]", "%", 49],
  ["COc1ccc(CNC(C)c2ccccc2F)cc1C (centres unmarked) [Compound 23J]", "%", 51]
]}

###

biological target: human calcium receptor (Homo sapiens, UniProt P41180, R990G); construct: expressed in transfected cells; host or cells: HEK 293; assay: increases in [Ca^2+ ]i in HEK-293 cells expressing the human calcium receptor (fura-2 loaded HEK 293/pHuPCaR4.0 cells), % activity; format: cell-based; conditions: 330 ng/mL
% activity by entry:

{"columns": ["compound", "unitInfo", "% activity"],
 "data": [
  ["C[C@@H](NCCCc1ccccc1Cl)c1cccc(OC(F)(F)F)c1 [Compound 7U]", "%", 49],
  ["CC(NCCCc1ccccc1)c1c[nH]c2ccccc12 (stereo not drawn) [Compound 2Q]", "%", 56],
  ["COc1ccc(CN[C@H](C)c2cccc3ccccc23)cc1F [Compound 16T]", "%", 97],
  ["C[C@@H](NCc1ccc(N(C)C)cc1)c1cccc2ccccc12 [Compound 13V]", "%", 110],
  ["CC(=O)c1ccc(CN[C@H](C)c2cccc3ccccc23)cc1 [Compound 17C]", "%", 120],
  ["C[C@@H](NCc1ccc(F)cc1)c1cccc2ccccc12 [Compound 13T]", "%", 90],
  ["CC(NC(C)c1ccc2ccccc2c1)c1ccc(C(C)(C)C)cc1 (mixture of isomers) [Compound 13I]", "%", 52],
  ["Cc1ccccc1C(C)NCCC(c1ccccc1)c1ccccc1 (stereo not drawn) [Compound 3L]", "%", 81],
  ["COc1ccc(CNC(C)c2cccc(C(C)=O)c2)cc1C (stereo not drawn) [Compound 23U]", "%", 87]
]}

###

molecular target: human calcium receptor (Homo sapiens, UniProt P41180, R990G); construct: expressed in transfected cells; host or cells: HEK 293; test: increases in [Ca^2+ ]i in HEK-293 cells expressing the human calcium receptor (fura-2 loaded HEK 293/pHuPCaR4.0 cells), % activity; format: cell-based; settings: 33 ng/mL

{"columns": ["molecule", "unitInfo", "% activity"],
 "data": [
  ["COc1ccc(CN[C@H](C)c2cccc3ccccc23)cc1C [Compound 16Q]", "%", 88],
  ["COc1ccc(CNC(C)c2ccc(C(F)(F)F)cc2)cc1C (stereo not shown) [Compound 24D]", "%", 34],
  ["COc1ccc(CNC(C)c2cccc(C)c2)cc1C (stereo not shown) [Compound 23Y]", "%", 61],
  ["COc1cccc([C@@H](C)NCC=Cc2c(C)cc(C)cc2C)c1 [Compound 12D]", "%", 52],
  ["COc1cccc(C(C)NCc2ccc(OC)c(C)c2)c1 (stereo not shown) [Compound 23I]", "%", 58],
  ["COc1cccc([C@@H](C)NC(C)CCc2ccccc2Cl)c1 (stereo partly shown) [21C = 4U]", "%", 76],
  ["CC(NC(C)c1ccc(C(C)(C)C)cc1)c1ccccc1 (stereo not shown) [Compound 13E]", "%", 40],
  ["COc1ccc(C(C)NC(C)c2cccc3ccccc23)cc1 (stereo not shown) [Compound 16J]", "%", 47],
  ["COc1ccc([C@@H](C)N[C@@H](C)c2cccc(OC)c2)cc1 [Compound 16M]", "%", 11],
  ["COc1ccc(CNC(C)c2ccccc2Cl)cc1C (stereo not shown) [Compound 23M]", "%", 74]
]}
